target: recombinant MAO-B (Homo sapiens); construct: purchased Sigma-Aldrich (Steinheim, Germany); test: In vitro fluorometric MAO-B inhibition assay (Ampliflu Red, tyramine); type: biochemical; settings: 10^−3 M
Sequence (P27338 whole entry): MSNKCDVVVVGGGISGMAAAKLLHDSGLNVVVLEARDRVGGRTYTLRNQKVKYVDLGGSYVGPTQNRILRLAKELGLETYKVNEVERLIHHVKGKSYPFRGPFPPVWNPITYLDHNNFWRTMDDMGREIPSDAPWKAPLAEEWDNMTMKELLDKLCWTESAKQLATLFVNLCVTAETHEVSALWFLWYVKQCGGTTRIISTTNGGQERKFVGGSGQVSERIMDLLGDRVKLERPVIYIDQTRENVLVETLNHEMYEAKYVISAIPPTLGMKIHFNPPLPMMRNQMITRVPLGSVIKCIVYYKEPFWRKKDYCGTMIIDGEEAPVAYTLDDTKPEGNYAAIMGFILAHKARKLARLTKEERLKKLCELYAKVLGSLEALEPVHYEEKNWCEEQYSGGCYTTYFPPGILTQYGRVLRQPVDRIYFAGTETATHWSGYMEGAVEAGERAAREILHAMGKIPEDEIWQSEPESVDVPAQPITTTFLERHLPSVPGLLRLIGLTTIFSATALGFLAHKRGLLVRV
recorded endpoint: inhibition at 1000 µM (%)
Give just the numeric value; % need not be written.

See these solved cases before continuing.
chemical string | recorded endpoint | unit abbrev | reading
CN1CCN(c2ccc(C=NNc3nc(-c4ccc(Cl)cc4)cs3)cc2)CC1 | inhibition at 1000 µM | % | 31.2
CN1CCN(c2ccc(C=NNc3nc(-c4ccc(F)cc4)cs3)cc2)CC1 | inhibition at 1000 µM | % | 30.7
CN1CCN(c2ccc(C=NNc3nc(-c4ccc([N+](=O)[O-])cc4)cs3)cc2)CC1 | inhibition at 1000 µM | % | 39.1
COc1ccc(-c2csc(NN=Cc3ccc(N4CCN(C)CC4)cc3)n2)cc1 | inhibition at 1000 µM | % | 30.3
CN1CCN(c2ccc(C=NNc3nc(-c4ccc(-c5ccccc5)cc4)cs3)cc2)CC1 | inhibition at 1000 µM | % | 30.6
Cc1ccc(-c2csc(NN=Cc3ccc(N4CCN(C)CC4)cc3)n2)c(C)c1 | inhibition at 1000 µM | % | 28.1
CN1CCN(c2ccc(C=NNc3nc(-c4ccc(C#N)cc4)cs3)cc2)CC1 | inhibition at 1000 µM | % | 36.6
CN1CCN(c2ccc(C=NNc3nc(-c4ccc(Br)cc4)cs3)cc2)CC1 | inhibition at 1000 µM | % | 34.4
CN1CCN(c2ccc(C=NNc3nc(-c4ccc(F)cc4F)cs3)cc2)CC1 | inhibition at 1000 µM | % | 29.6
CN1CCN(c2ccc(C=NNc3nc(-c4ccccc4)cs3)cc2)CC1 | inhibition at 1000 µM | % | 32.3

Let's switch to this molecule now.
I am curious: what inhibition at 1000 µM value has been reported for Cc1ccc(-c2csc(NN=Cc3ccc(N4CCN(C)CC4)cc3)n2)cc1 ?
34.6

###

recorded endpoint: melting point

See these solved cases before continuing.
chemical string | melting point
CN1CCN(c2ccc(C=NNc3nc(-c4ccc(C#N)cc4)cs3)cc2)CC1 | 234 to 235 °C
Cc1ccc(-c2csc(NN=Cc3ccc(N4CCN(C)CC4)cc3)n2)c(C)c1 | 238 to 240 °C
CN1CCN(c2ccc(C=NNc3nc(-c4ccc(Cl)cc4)cs3)cc2)CC1 | 249 to 250 °C
CN1CCN(c2ccc(C=NNc3nc(-c4ccc(F)cc4F)cs3)cc2)CC1 | 250 to 251 °C

Let's switch to this compound now.
I am curious: what melting point value has been reported for CN1CCN(c2ccc(C=NNc3nc(-c4ccccc4)cs3)cc2)CC1 ?
254 to 255 °C
